The measured values listed here are drawn from patent US5708032A.

Collected pest or weed control at 100 ppm values appear next to each entry.
- System: root knot nematodes (Meloidogyne incognita)
- measurement_notes: systemic control of root knot nematodes on tomato roots by foliar application
- Assay type: in vivo
- condition_info: Meloidogyne incognita, foliar, 504 h, read-out: percent control of root disease relative to non-treated plants
Express your answer in %, writing the number without its unit.

Known results for molecules:
C[Si](C)(C)CCCOC(=O)CC(F)=C(F)F	4
C[Si](C)(C)CCSC(=O)CC(F)=C(F)F	2
O=P(O)(O)CC(F)=C(F)F	-5

Query molecule follows.
Which pest or weed control at 100 ppm is listed for C[Si](C)(C)CN(Cc1ccccc1)C(=O)CC(F)=C(F)F ?
2
